Listed below: pKi values for each entry.
- measurementTarget: α1A Human Adrenergic Receptor (Homo sapiens)
- Construct: The entire coding region of α1A (1719 bp); expressed in transfected cells
- Sequence (P25100 whole entry): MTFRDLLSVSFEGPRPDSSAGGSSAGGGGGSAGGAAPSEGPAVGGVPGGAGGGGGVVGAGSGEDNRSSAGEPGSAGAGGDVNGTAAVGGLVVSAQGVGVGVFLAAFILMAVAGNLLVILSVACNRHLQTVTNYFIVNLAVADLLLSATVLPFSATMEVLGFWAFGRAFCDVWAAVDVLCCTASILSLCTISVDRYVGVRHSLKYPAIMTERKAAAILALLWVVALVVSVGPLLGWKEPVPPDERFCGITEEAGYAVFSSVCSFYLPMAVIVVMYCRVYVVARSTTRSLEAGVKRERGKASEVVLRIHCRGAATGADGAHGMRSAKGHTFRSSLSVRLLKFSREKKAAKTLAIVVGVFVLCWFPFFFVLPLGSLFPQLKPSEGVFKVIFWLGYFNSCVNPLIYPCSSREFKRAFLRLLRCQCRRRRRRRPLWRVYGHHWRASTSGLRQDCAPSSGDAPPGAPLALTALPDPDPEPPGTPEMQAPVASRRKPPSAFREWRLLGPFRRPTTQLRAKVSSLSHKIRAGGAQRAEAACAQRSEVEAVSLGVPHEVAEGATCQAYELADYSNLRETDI
- measurementProtocol: Radioligand binding, [3H]prazosin, cloned human α1A adrenergic receptor
- conditionContext: pKi alpha-1 1a
pKi: −log10 of the molar value. Counter-ions that a name gives are not always drawn.

{"columns": ["compound", "pKi"],
 "data": [
  ["COC(=O)C1=C(C)N(C)C(C)=C(C(=O)OCCCN2CCC(c3ccccc3)(c3ccccc3)CC2)C1c1ccc([N+](=O)[O-])cc1 (stereo not drawn) [Example 92, hydrochloride hydrate]", 6.68],
  ["COC(=O)C1=C(C)NC(C)=C(C(=O)NCCCN2CCC(c3ccccc3)(c3ccccc3)CC2)C1c1ccc(Br)cc1 (stereo not drawn) [Example 15]", 6.38],
  ["COC(=O)C1=C(C)NC(C)=C(C(=O)NCCCN2CCC(c3ccccc3)(c3ccccc3)CC2)C1c1cc(OC)c(OC)c(OC)c1 (stereo not drawn) [Example 27]", 6.42],
  ["COC(=O)C1=C(C)NC(C)=C(C(=O)NCCCN2CCC(c3ccccc3)(c3ccccc3)CC2)C1c1ccc(C(F)(F)F)cc1 (stereo not drawn) [Example 1]", 5.59],
  ["CCC1=C(C(N)=O)C(c2ccc([N+](=O)[O-])cc2)C(C(=O)NCCCN2CCC(c3ccc(OC)cc3)(c3ccc(OC)cc3)CC2)=C(CC)N1 (stereo not drawn) [Example 103, hydrochloride]", 5.60],
  ["COC(=O)C1=C(C)NC(C)=C(C(=O)NCCCN2CCC(c3ccccc3)(c3ccccc3)CC2)C1c1ccncc1 (stereo not drawn) [Example 5]", 5.74],
  ["COC(=O)C1=C(C)NC(C)=C(C(=O)N(C)CCCN2CCC(c3ccccc3)(c3ccccc3)CC2)C1c1ccc([N+](=O)[O-])cc1 (stereo not drawn) [Example 46, hydrochloride hemihydrate]", 6.30],
  ["CCC1=C(C(N)=O)C(c2ccc([N+](=O)[O-])cc2)C(C(=O)NCCCN2CCC3(CC2)C(=O)NCN3c2ccccc2)=C(CC)N1 (stereo not drawn) [Example 105, hydrochloride hydrate]", 5.61],
  ["COC(=O)C1=C(C)NC(C)=C(C(=O)NCCCN2CCC(c3ccccc3)(c3ccccc3)CC2)C1c1ccc2c(c1)OCO2 (stereo not drawn) [Example 11]", 6.52],
  ["COC(=O)C1=C(C)NC(C)=C(C(=O)NCCCN2CCC(c3ccccc3)(c3ccccc3)CC2)C1c1ccc(OC)cc1 (stereo not drawn) [Example 21]", 6.31],
  ["CNC(=O)C1=C(C)NC(C)=C(C(=O)NCCCN2CCC(c3ccccc3)(c3ccccc3)CC2)C1c1ccc([N+](=O)[O-])cc1 (single isomer, unassigned; (+)) [(+)-119]", 5.89],
  ["COC(=O)C1=C(C)NC(C)=C(C(=O)NCCCN2CCC(c3ccccc3)(c3ccccc3)CC2)C1c1ccc(-c2ccccc2)cc1 (stereo not drawn) [Example 7]", 5.93],
  ["COC(=O)C1=C(C)NC(C)=C(C(=O)NCCCN2CCC(c3ccccc3)(c3ccccc3)CC2)C1c1ccc(C(=O)OC)cc1 (stereo not drawn) [Example 25]", 6.19],
  ["CCCC1=C(C(=O)NCC)C(c2ccc([N+](=O)[O-])cc2)C(C(=O)NCCCN2CCC(c3ccccc3)(c3ccccc3)CC2)=C(CCC)N1 (stereo not drawn) [Example 159]", 6.41],
  ["CCOC(=O)C1=C(CC(=O)NCCCN2CCC(c3ccccc3)(c3ccccc3)CC2)NC(C)=C(C(=O)OC)C1c1ccc([N+](=O)[O-])cc1 (stereo not drawn) [Example 89, fumarate salt]", 6.46],
  ["CCC1=C(C(=O)NCCCN2CCC(c3ccccc3)(c3ccccc3)CC2)C(c2ccc(N)cc2)C(C(=O)OC)=C(C)N1 (stereo not drawn) [Example 114]", 6.26],
  ["COC(=O)C1=C(C)NC(C)=C(C(=O)NCCCN2CCC(c3ccccc3)(c3ccccc3)CC2)C1c1ccc(I)cc1 (stereo not drawn) [Example 13]", 6.41],
  ["COC(=O)C1=C(C)NC(C)=C(C(=O)NCCCN2CCC(c3ccccc3)(c3ccccc3)CC2)C1C1CCCCC1 (stereo not drawn) [Example 6]", 5.95],
  ["COC(=O)C1=C(C)NC(c2ccccc2)=C(C(=O)NCCCN2CCC(c3ccccc3)(c3ccccc3)CC2)C1c1ccc([N+](=O)[O-])cc1 (stereo not drawn) [Example 78, hydrochloride hydrate]", 6.75],
  ["COC(=O)C1=C(C)NC(C)=C(C(=O)NCCCN2CCC(c3ccccc3)(c3ccccc3)CC2)C1c1ccc(Cl)cc1 (stereo not drawn) [Example 10]", 6.35],
  ["CCC1=C(C(=O)NCCCN2CCC(c3ccccc3)(c3ccccc3)CC2)C(c2ccc([N+](=O)[O-])cc2)C(C(=O)OC)=C(C)N1 (stereo not drawn) [Example 73]", 6.69],
  ["COC(=O)C1=C(C)NC(C)=C(C(=O)NCCCN2CCC(c3ccccc3)(c3ccccc3)CC2)C1c1ccc(Cl)c([N+](=O)[O-])c1 (stereo not drawn) [Example 16]", 6.37],
  ["COC(=O)C1=C(C)NC(C)=C(C(=O)NCCCN2CCC(c3ccccc3)(c3ccccc3)CC2)C1c1ccc(C#N)cc1 (stereo not drawn) [Example 12]", 6.42],
  ["COC(=O)C1=C(C)NC(C)=C(C(=O)NCCCN2CCC(c3ccccc3)(c3ccccc3)CC2)C1c1ccc(F)cc1 (stereo not drawn) [Example 20]", 5.87]
]}
